target: rice P5C dehydrogenase (OsP5CDH) (Oryza sativa, UniProt B9FLB9)
TEST READOUT: Ki
Phrase the answer as number then unit, nothing more needed.

Query string: # input compound: N=C(N)NCCC[C@H](N)C(=O)O [arginine] ; wanted: its Ki
Result string: 62.3 mM

---

Biological target: rice P5C dehydrogenase (OsP5CDH) (Oryza sativa)
Sequence (B9FLB9 17-550): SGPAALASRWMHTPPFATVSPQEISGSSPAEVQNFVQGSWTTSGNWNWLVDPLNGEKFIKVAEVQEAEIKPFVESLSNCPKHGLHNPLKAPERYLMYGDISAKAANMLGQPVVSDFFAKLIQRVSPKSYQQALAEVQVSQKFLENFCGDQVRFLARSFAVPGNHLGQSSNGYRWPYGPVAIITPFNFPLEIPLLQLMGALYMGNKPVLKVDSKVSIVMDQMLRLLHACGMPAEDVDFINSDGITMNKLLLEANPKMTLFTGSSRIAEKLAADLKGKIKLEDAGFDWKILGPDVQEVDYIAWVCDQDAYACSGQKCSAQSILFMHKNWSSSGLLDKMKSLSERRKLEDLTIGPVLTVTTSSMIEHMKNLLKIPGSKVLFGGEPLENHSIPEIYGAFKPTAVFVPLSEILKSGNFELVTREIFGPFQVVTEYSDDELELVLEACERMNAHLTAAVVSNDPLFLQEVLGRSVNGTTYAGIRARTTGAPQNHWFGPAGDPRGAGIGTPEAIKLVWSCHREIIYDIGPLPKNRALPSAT
TEST READOUT: IC50 (mM)
Give the value in mM but do not write mM after it.

Query string: May I ask what IC50 has been recorded for "N=C(N)NCCC[C@H](N)C(=O)O" ?
Result string: 87
